Target: T1, Csm2;Psy3 (Saccharomyces cerevisiae;Saccharomyces …, UniProt P40465;Q12318 1-213;1-242, |)
T1 sequence 1: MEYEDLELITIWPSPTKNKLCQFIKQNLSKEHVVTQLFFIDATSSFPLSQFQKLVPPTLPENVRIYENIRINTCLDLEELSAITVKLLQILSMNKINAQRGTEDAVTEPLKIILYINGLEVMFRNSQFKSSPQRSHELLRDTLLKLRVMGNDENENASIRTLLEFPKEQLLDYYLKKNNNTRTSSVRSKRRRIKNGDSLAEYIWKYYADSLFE
T1 sequence 2: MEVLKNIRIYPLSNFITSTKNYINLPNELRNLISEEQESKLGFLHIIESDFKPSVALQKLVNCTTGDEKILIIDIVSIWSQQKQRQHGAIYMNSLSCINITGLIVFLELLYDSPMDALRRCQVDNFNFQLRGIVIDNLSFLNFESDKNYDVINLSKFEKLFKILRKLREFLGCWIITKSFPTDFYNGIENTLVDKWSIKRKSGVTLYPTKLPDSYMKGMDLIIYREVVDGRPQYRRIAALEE
Assay: fluorescence anisotropy
measuredEndpoint: pKd
The value called pKd is obtained by taking minus log10 of the concentration in mol/L.

Which pKd reading was recorded for the binder fluorescein-labelled fork (mixed) DNA 1: TTTTTTTTTTTTTTTTTTTTCTTGACAAGCTTGCGCACT DNA 2: AGTGCGCAAGCTTGTCAAGGCACTTTTTTTTTTTTTTTT ?
6.44
